Tested on: MS2 coat protein
TEST NAME: apparent KD of MS2 coat protein; designed switch direction (-1 OFF switch, 1 ON switch): -1; higher = weaker reporter binding
RUN CONDITIONS: input ligand: FMN 200 uM
Answer each item with its documented apparent KD of MS2 coat protein.
Quick note: give the figure in nM, leave out the unit.

Q. Answer with the recorded apparent KD of MS2 coat protein for the sequence listed here: CAGUGACAUGAGGAUCACCCAUGUUAGGAUAUCCGCAAAGGGAGUAGGAUUCCCAUUUGGAGAAGGGACAGGUG [Eternabot (L1) Solution 95] (Eterna round: R97, puzzle: Exclusion 1)
A. 72.5

Q. Answer with the recorded apparent KD of MS2 coat protein for the sequence listed here: UAAUGUGCGAGAGGAUAUCGUGUACAAAGUACACGAGAAGGCUUCACAUGAGGAUCACCCAUGUAUCGAGGUGAAACACCUUGG [Omei Exc(NG)1 Bv2] (Eterna round: R96, puzzle: Exclusion NG 1)
A. 703

Q. Answer with the recorded apparent KD of MS2 coat protein for the sequence listed here: CUAACAUGCUGGUGAUCAUACAUGAGGAUCACCCAUGUAACAAGCUUUUUGCUCGUCUUAUAAGAUUACUAGUAUGU [Stov1/10-A4] (Eterna round: R97, puzzle: Sensor, turn-off variant 1)
A. 21.4

Q. Answer with the recorded apparent KD of MS2 coat protein for the sequence listed here: CAGGUGUGAGGAUAUGUGAUUAUGAUAGACCGAGUCUACCCACAGAAGGCACAUGAGGAUCACCCAUGUGAGUA [Eternabot (L1) Solution 75] (Eterna round: R97, puzzle: Exclusion 4)
A. 122

Q. Answer with the recorded apparent KD of MS2 coat protein for the sequence listed here: CCGUUGGUAGGAUAUCCAACGAUAUACUUGAGGAUCACCCAAGUCCGUAGGGCGUUCGAAGGAGAAGGGCUGAUGG [Zaisaat] (Eterna round: R97, puzzle: Exclusion 5)
A. 120

###

Test system: MS2 coat protein
TEST NAME: apparent KD of MS2 coat protein; designed switch direction (-1 OFF switch, 1 ON switch): 1; higher = weaker reporter binding
RUN CONDITIONS: input ligand: none
EXPERIMENTAL ENDPOINT: apparent KD of MS2 coat protein (nM)
Quick note: give the figure in nM, leave out the unit.

Q. Answer with the recorded apparent KD of MS2 coat protein for the sequence listed here: AAAACAUGAGGAUCACCCAUGUGUAAAAGAUACCGGAUGGUGCAGGAUAUAUCCCAUUAAAGUGGAUAGAAGGGUGGCAUCAAG [Eternabot solution 46] (Eterna round: R96, puzzle: Same State NG 3)
A. 32.1

Q. Answer with the recorded apparent KD of MS2 coat protein for the sequence listed here: GUGGUGAAUUAAGGAUAUCGAGUCUAGAUGUUAAACAUGAGGAUCACCCAUGUGGGUUGCGGUGUCGAGAAGGUGAUUUACGGG [salish99_SSNG2_r04_509] (Eterna round: R96, puzzle: Same State NG 2)
A. 104

###

Answer each item with its documented apparent KD of MS2 coat protein.
Test system: MS2 coat protein
TEST NAME: apparent KD of MS2 coat protein; designed switch direction (-1 OFF switch, 1 ON switch): -1; higher = weaker reporter binding
RUN CONDITIONS: input ligand: microRNA oligo, concentration not stated
Quick note: give the figure in nM, leave out the unit.

Q. Give reported apparent KD of MS2 coat protein for GCGGACAAGAUAUAAAUAUCAGAGACAUGAGGAUCACCCAUGUAGGAUAUCGAUUCGAAACGAAUCGAGAAGGGCAUAGUCCGC [JL denovo 1] (Eterna round: R96, puzzle: Exclusion NG 3) (MS2 coat protein)
A. 13.8

Q. Give reported apparent KD of MS2 coat protein for UACCUGUAGGUAGGAUAUCAUUGCGAUUAGCUAUGAGAAGGACCACAUGAGGAUCACCCAUGUCUACUCAGGAACCGAAAGGUC [Fiskers ExNg1 - 1] (Eterna round: R96, puzzle: Exclusion NG 1) (MS2 coat protein)
A. 10.4

Q. Give reported apparent KD of MS2 coat protein for AUUUUGUCAGGAUAUGAGUAGUAGGACGAAAGUGUUAUUAUUUAGAAGGGACAUGAGGAUCACCCAUGUUCCUC [Bring Us a Shrubbery-03] (Eterna round: R96, puzzle: Exclusion 4) (MS2 coat protein)
A. 10.7

Q. Give reported apparent KD of MS2 coat protein for GUAUAACAUGUAGGAUAUGCGUGGCGAAGCUAUGCAGAAGGACAUGAGGAUCACCCAUGUAAUAGCGUCUGCGUACAGAUGCAA [Mat - Exclusion NG 1 - Mod of JL - D90] (Eterna round: R96, puzzle: Exclusion NG 1) (MS2 coat protein)
A. 27.9

###

Test system: MS2 coat protein
TEST NAME: apparent KD of MS2 coat protein; designed switch direction (-1 OFF switch, 1 ON switch): -1; higher = weaker reporter binding
RUN CONDITIONS: input ligand: none
EXPERIMENTAL ENDPOINT: apparent KD of MS2 coat protein (nM)
Quick note: give the figure in nM, leave out the unit.

Q. Answer with the recorded apparent KD of MS2 coat protein for the sequence listed here: CAAUAUUAUCGAGGAUAUCCUAUUGUAUUUCAGGGAGAAGGCGGACUCAACAUGAGGAUCACCCAUGUAAGACGGGUACUAGAU [Ex NG1 #19] (Eterna round: R96, puzzle: Exclusion NG 1)
A. 89.7

Q. Answer with the recorded apparent KD of MS2 coat protein for the sequence listed here: GUGCCGCGAGGAUAUACAGACGGGUCCAGUACGUGUCUGGGACUUGAGGAUCACCCAAGUAGAAGGCGUCUCAG [salish99_ex2_r4_613] (Eterna round: R97, puzzle: Exclusion 2)
A. 44.6

Q. Answer with the recorded apparent KD of MS2 coat protein for the sequence listed here: CUGUUUUUCGCAGGAUAUGCUUCUCCUUUAUUAGCAGAAGGGCGUUAAACAUGAGGAUCACCCAUGUAUGGUAAUGACAUUUUC [JR_ExcNG1_Sub061] (Eterna round: R96, puzzle: Exclusion NG 1)
A. 24.3

###

Answer each item with its documented apparent KD of MS2 coat protein.
Test system: MS2 coat protein
TEST NAME: apparent KD of MS2 coat protein; designed switch direction (-1 OFF switch, 1 ON switch): -1; higher = weaker reporter binding
RUN CONDITIONS: input ligand: none
Quick note: give the figure in nM, leave out the unit.

Q. Answer with the recorded apparent KD of MS2 coat protein for the sequence listed here: AUGCUCCGUGUAGGAUAUCGCCGUAUUAUUCGGCGAGAAGGACAUGAGGAUCACCCAUGUAUGUUAUUAUCACGUGUGGCGCGC [Design 47] (Eterna round: R96, puzzle: Exclusion NG 1)
A. 21.8

Q. Answer with the recorded apparent KD of MS2 coat protein for the sequence listed here: UUCCUCACUUCUUUGUCUCACAUGAGGAUCACCCAUGUAAUAUAGGAUAUGCUUAGUAUUUCUAUGCAGAAGGAUAUUAGUUUU [JR_ExcNG3_Sub086] (Eterna round: R96, puzzle: Exclusion NG 3)
A. 32.3

Q. Answer with the recorded apparent KD of MS2 coat protein for the sequence listed here: ACGAUGACCGAAAAGUGUUAACUGACAUGAGGAUCACCCAUGUAGGAUAUGGCUACGAAAAGUAGUCAGAAGGGCAUGUCAUCA [Omei Exc(NG) 3 Av8] (Eterna round: R96, puzzle: Exclusion NG 3)
A. 27.3

Q. Answer with the recorded apparent KD of MS2 coat protein for the sequence listed here: CAGUACUGAGGAUAUACAUGAGGAUCACCCAUGUGUUUUCUAUUAGGAAACUAGUUAUGUAGAAGGCAGUACUG [Omei Ex3 Mod of Eli 4.27 v11] (Eterna round: R97, puzzle: Exclusion 3)
A. 40

Q. Answer with the recorded apparent KD of MS2 coat protein for the sequence listed here: CGGAUACAUGAGGAUCACCCAUGUGAGGAUAUCGUACGUUCGUCGAAAGACGAUCGUACGAGAAGGCAUGACCG [Eli x1 4.36] (Eterna round: R97, puzzle: Exclusion 1)
A. 113

Q. Answer with the recorded apparent KD of MS2 coat protein for the sequence listed here: GUUAUUAAUGUAGGAUAUGCAAGGCGAACCUAAGCAGAAGGACAUGAGGAUCACCCAUGUAUUGCGGUCUGCGUUCAGAUCGCU [salish99_ExNG1_r4_012] (Eterna round: R96, puzzle: Exclusion NG 1)
A. 19.4

Q. Answer with the recorded apparent KD of MS2 coat protein for the sequence listed here: GCAGAAAGUGUAGGAUAUAGAUAUUAGCGGAAACGCAAUACAUGAGGAUCACCCAUGUUUCCUCACUAGAAGGGCAAAAGCUGC [EXNG2 V2 d] (Eterna round: R96, puzzle: Exclusion NG 2)
A. 17.2

Q. Answer with the recorded apparent KD of MS2 coat protein for the sequence listed here: GCUAUGCAAGGAUAUACAAGAUUAUGACAAGCGUGGAAACGACAUGAGGAUCACCCAUGUAGAAGGUGUUAUGC [Eternabot (L2) Solution 56] (Eterna round: R97, puzzle: Exclusion 2)
A. 65.5

Q. Answer with the recorded apparent KD of MS2 coat protein for the sequence listed here: ACAUGUUAUCCAUGAUAUCACAUGAGGAUCACCCAUGUUAUGGCGAUUUUGAGGUGUAAGUUUUGUGCUCGUCUUAU [JR_STOV1_Sub057] (Eterna round: R97, puzzle: Sensor, turn-off variant 1)
A. 89.4

Q. Answer with the recorded apparent KD of MS2 coat protein for the sequence listed here: UACCUGAGGCUUUGCUUUAGGCUUACAUGAGGAUCACCCAUGUAGGAUAUGGUAGGCUUUGCUUACCAGAAGGACAUGGAAAUU [Mat - Exclusion NG 3 - Mod of JL - D20] (Eterna round: R96, puzzle: Exclusion NG 3)
A. 70.7

Q. Answer with the recorded apparent KD of MS2 coat protein for the sequence listed here: UAGUAAAAGGUGAGGAUAUCCGCAAUAAAACGUGAGGAGAAGGCACAUGAGGAUCACCCAUGUAGGGUAUCAAA [BmEX4 A.17] (Eterna round: R97, puzzle: Brourd's mod of Exclusion 4)
A. 450

Q. Answer with the recorded apparent KD of MS2 coat protein for the sequence listed here: ACAUGAGGAUCACCCAUGUCCGUCUGGUCUGUCUCGGCUGUCGAGGAUAUAGCUCGGUAUCCGCGCUAGAAGGCGGGAGUCGGA [Aenatbe mod 94] (Eterna round: R96, puzzle: Exclusion NG 3)
A. 32.3

Q. Answer with the recorded apparent KD of MS2 coat protein for the sequence listed here: AGCGGACAAGGAUAUACAUGAGGAUCACCCAUGUACUUAGCAAGUUUGUUUCGUCGAUGUAGAAGGUGUAAUGU [EX3 C.14] (Eterna round: R97, puzzle: Exclusion 3)
A. 20.2

Q. Answer with the recorded apparent KD of MS2 coat protein for the sequence listed here: GCAGCGUAGUCCAAAUAGGACAUACAUGAGGAUCACCCAUGUCAGGAUAUGGUCUGGAUUACAGGCCAGAAGGGACAAAGCUGC [Eli exng3 - 003] (Eterna round: R96, puzzle: Exclusion NG 3)
A. 26

Q. Answer with the recorded apparent KD of MS2 coat protein for the sequence listed here: GUCAGCUCGUCAGGAUAUACAUGCGUGCUUCGGCACGAAUUUAAGAUCACAUGAGGAUCACCCAUGUAGAAGGGACGAGCUGAC [ENG2/3-B1] (Eterna round: R96, puzzle: Exclusion NG 2)
A. 534

Q. Answer with the recorded apparent KD of MS2 coat protein for the sequence listed here: GCCAUGUGAGGAUAUGUGGUCGAAUAUGAAAGUGAUUGACCAUAGAAGGCACAUGAGGAUCACCCAUGUCCUUU [Eternabot (L2) Solution 64] (Eterna round: R97, puzzle: Exclusion 4)
A. 27.3

Q. Answer with the recorded apparent KD of MS2 coat protein for the sequence listed here: CCCAGAUAGGAAGGAUAUUGUACAUGAGGAUCACCCAUGUAAUAAAUGAGGAUCACGGAUGUAGACAAGAAGGUCCGGAUAGGC [Ostracism 7 - Jieux - Exclusion NG 2] (Eterna round: R96, puzzle: Exclusion NG 2)
A. 50.2

Q. Answer with the recorded apparent KD of MS2 coat protein for the sequence listed here: AGUUAUGUAGGAUAUGCACGUGACAACUUGAGGAUCACCCAAGUGAUUGCAGGCUGGGCGGCAGAAGGGCAGUUGU [Diedbi] (Eterna round: R97, puzzle: Exclusion 5)
A. 104
